From: patent US20260174875A1

Field: hGIPR Potency, no HSA, EC50 [pM]. Provide a value for each of the binders that follow.
measurement.target: T1, human GIP receptor (human, UniProt P48546 22-466)
T1 sequence (looked up): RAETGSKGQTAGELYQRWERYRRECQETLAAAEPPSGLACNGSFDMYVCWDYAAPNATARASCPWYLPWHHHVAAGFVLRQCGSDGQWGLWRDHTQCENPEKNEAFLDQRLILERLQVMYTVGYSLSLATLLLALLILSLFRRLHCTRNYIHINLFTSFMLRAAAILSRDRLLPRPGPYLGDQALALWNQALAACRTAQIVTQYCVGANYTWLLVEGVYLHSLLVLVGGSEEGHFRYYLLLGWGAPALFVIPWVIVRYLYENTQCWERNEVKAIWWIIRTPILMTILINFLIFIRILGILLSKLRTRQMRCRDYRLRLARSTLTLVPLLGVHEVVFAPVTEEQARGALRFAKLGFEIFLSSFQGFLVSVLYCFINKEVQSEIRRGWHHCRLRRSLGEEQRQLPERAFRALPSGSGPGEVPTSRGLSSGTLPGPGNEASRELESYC
protocol.details: cell-based or functional assay
Numbered stars: 1 amine (or outer) side, 2 acyl side, 3 side chain; on linkers, the order of the positions; unused ones are H or OH. Square brackets hold non-standard residues; d marks the D form. Side chains are listed from the residue outwards. * marks the point of attachment. C20 diacid = O=C(O)CCCCCCCCCCCCCCCCCCC(=O)*; C18 diacid = O=C(O)CCCCCCCCCCCCCCCCC(=O)*; C16 diacid = O=C(O)CCCCCCCCCCCCCCC(=O)*; γGlu = O=C(O)[C@H](CCC(=O)[*:2])N[*:1]; Chem. 27 = not defined here; Chem. 28 = not defined here; Chem. 29 = not defined here; AEEA = NCCOCCOCC(=O)O; Aib = CC(C)(N)C(=O)O
I only need the number, in pM, no unit after it.

Req: For the binder Compound 17 (peptide) peptide: H[Aib]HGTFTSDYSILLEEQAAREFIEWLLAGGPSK([AEEA-AEEA-γGlu-C16 diacid])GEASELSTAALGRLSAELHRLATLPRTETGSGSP-NH2 , what hGIPR Potency, no HSA, EC50 [pM] is on record?
Resp: 5.04

Req: For the binder Compound 97 (peptide) peptide: Y[Aib]EGTFTSDYSILLEEQAAREFIEWLLAGGPSSGAGQAPGASHLSTAQTQRLSAELHK([AEEA-AEEA-γGlu-C18 diacid])LATLPRTETGSGSP-NH2 , what hGIPR Potency, no HSA, EC50 [pM] is on record?
Resp: 2.3

Req: For the binder Compound 73 (peptide) peptide: H[Aib]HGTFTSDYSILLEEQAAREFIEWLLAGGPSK([AEEA-AEEA-γGlu-C18 diacid])GEASQLSTAALGRLSAELHRLATLPRTETGSGSP-NH2 , what hGIPR Potency, no HSA, EC50 [pM] is on record?
Resp: 4.98

Req: For the binder Compound 31 (reading uncertain) peptide: Y[Aib]EGTFTSDYSILLEEQAAREFIEWLLAGGPSSK(Chem. 28)APPPSGGGEASELSTAALGRLSAELHRLATLPRTETGSGSP-NH2 , what hGIPR Potency, no HSA, EC50 [pM] is on record?
Resp: 4.73

Req: For the binder Compound 52 (reading uncertain) peptide: Y[Aib]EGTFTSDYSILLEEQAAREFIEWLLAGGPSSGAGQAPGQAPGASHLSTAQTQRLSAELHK(Chem. 28)LATLPRTETGSGSP-NH2 , what hGIPR Potency, no HSA, EC50 [pM] is on record?
Resp: 1.83

Req: For the binder Compound 86 (peptide) peptide: H[Aib]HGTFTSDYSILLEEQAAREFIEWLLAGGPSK([AEEA-AEEA-γGlu-C18 diacid])GAPPPSGGGASELSTAALGRLSAELHRLATLPRTETGSGSP-NH2 , what hGIPR Potency, no HSA, EC50 [pM] is on record?
Resp: 5.11

Req: For the binder Compound 25 (reading uncertain) peptide: H[Aib]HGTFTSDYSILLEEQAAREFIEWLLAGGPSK(Chem. 28)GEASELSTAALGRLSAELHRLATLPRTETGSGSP-NH2 , what hGIPR Potency, no HSA, EC50 [pM] is on record?
Resp: 4.27

Req: For the binder Compound 75 (peptide) peptide: H[Aib]HGTFTSDYSILLEEQAAREFIEWLLAGGPSGGEASHLSTAQTQRLSAELHK([AEEA-AEEA-γGlu-C18 diacid])LATLPRTETGSGSP-NH2 , what hGIPR Potency, no HSA, EC50 [pM] is on record?
Resp: 2.65

Req: For the binder Compound 90 (peptide) peptide: H[Aib]HGTFTSDYSILLEEQAAREFIEWLLAGGPSSGEASHLSTAALGRLSAELHRLATLPK([AEEA-AEEA-γGlu-C18 diacid])TETGSGSP-NH2 , what hGIPR Potency, no HSA, EC50 [pM] is on record?
Resp: 5.4

Req: For the binder Compound 79 (peptide) peptide: Y[Aib]EGTFTSDYSILLEEQAAREFIEWLLAGGPSSGEASHLSTAQTQRLSAK([AEEA-AEEA-γGlu-C18 diacid])LHRLATLPRTETGSGSP-NH2 , what hGIPR Potency, no HSA, EC50 [pM] is on record?
Resp: 4.7

Req: For the binder Compound 76 (peptide) peptide: Y[Aib]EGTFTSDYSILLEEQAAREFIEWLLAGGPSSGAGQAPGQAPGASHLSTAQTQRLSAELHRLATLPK([AEEA-AEEA-γGlu-C20 diacid])TETGSGSP-NH2 , what hGIPR Potency, no HSA, EC50 [pM] is on record?
Resp: 2.82

Req: For the binder Compound 10 (reading uncertain) peptide: Y[Aib]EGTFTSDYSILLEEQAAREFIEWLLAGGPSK(Chem. 29)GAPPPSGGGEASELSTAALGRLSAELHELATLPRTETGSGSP-NH2 , what hGIPR Potency, no HSA, EC50 [pM] is on record?
Resp: 2.11

Req: For the binder Compound 18 (reading uncertain) peptide: Y[Aib]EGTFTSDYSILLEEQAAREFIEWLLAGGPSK(Chem. 29)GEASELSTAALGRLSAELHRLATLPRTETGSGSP-NH2 , what hGIPR Potency, no HSA, EC50 [pM] is on record?
Resp: 7.25

Req: For the binder Compound 12 (peptide) peptide: H[Aib]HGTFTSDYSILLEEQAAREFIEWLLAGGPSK([AEEA-AEEA-γGlu-C16 diacid])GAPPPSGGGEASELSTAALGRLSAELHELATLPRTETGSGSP-NH2 , what hGIPR Potency, no HSA, EC50 [pM] is on record?
Resp: 2.62

Req: For the binder Compound 66 (peptide) peptide: H[Aib]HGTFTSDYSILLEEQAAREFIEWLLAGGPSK([AEEA-AEEA-γGlu-C18 diacid])GEASQLSTAALGRLSAELHHLATLPRTETGSGSP-NH2 , what hGIPR Potency, no HSA, EC50 [pM] is on record?
Resp: 2.39

Req: For the binder Compound 104 (reading uncertain) peptide: H[Aib]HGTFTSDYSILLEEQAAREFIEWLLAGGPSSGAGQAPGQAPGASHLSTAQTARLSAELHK(Chem. 27)LATLPRTETGSGSP-NH2 , what hGIPR Potency, no HSA, EC50 [pM] is on record?
Resp: 3.57
